# assay info: protein stability index of a GFP-peptide fusion (yeast GPS) (PSI 1-4); higher = more stable; sorted into four equal gates, so the index is relative within each strain
# cond: doa10∆
Label scheme for protein stability index: lower than 3 is 0.0, 3 and above is 1.0.

Answered examples (6):
| sequence entry | class |
| --- | --- |
| HKVTQKKDIKIGTNDLF [SIR4] | 0.0 |
| CNALIHIKFSAGTEANA [SRB4] | 0.0 |
| ESVPIYSIDEFFLQRKL [BRR2] | 1.0 |
| QGRDTSKLPDPERWLPL [SRP72] | 1.0 |
| PEILRFKVYEPLLLVGL [RPS16A] | 0.0 |
| LMISPKDEETTEKARLI [RRI2] | 0.0 |

// next entry
Req: Has EPSGIYSSWSAQTIGRN [PRE6] a recorded protein stability index greater than or equal to 3?
Resp: 0.0

* * *

# assay info: protein stability index of a GFP-peptide fusion (yeast GPS) (PSI 1-4); higher = more stable; sorted into four equal gates, so the index is relative within each strain
# cond: doa10∆
readout type: protein stability index
Format: numeric value only, no unit, no commentary.

Reported protein stability index for KGLVSQQLDSFNQFVDY [RPB2] was 2.64

protein stability index recorded for this sequence, NGSEKVLIAQERSAGNI [RPB2] , is 3.1

The recorded protein stability index for PSTTDDENGDKNDNGGK [SWI3] is 3.09

The recorded protein stability index for SDNVSFEIQGVPPMKLA [YMR129W/POM152] is 2.8

For this sequence ( EIENATKDIFPLQNIHV [RPS1A] ), measured protein stability index is 2.1

// protein stability index value for WYQFSNSKDHKKITLQL [SIN4] : 3.35

Lookup result for SEPLTLKVLSEHLDCMN [PCI8] ; measured protein stability index: 1.91

* * *

# assay info: protein stability index of a GFP-peptide fusion (yeast GPS) (PSI 1-4); higher = more stable; sorted into four equal gates, so the index is relative within each strain
# cond: doa10∆
Mark condition met for reported protein stability index of 3 or greater; mark condition not met for anything smaller.

Recorded results for 4 sequences are shown here.
| sequence entry | class |
| --- | --- |
| DKLICSIDPPGCVDIDD [DIS3] | condition met |
| PQDILSKLYLLLARVFE [SNF11] | condition not met |
| EVGPWGSARTRWEMEAF [FAS2] | condition not met |
| IYNELSYELIKEECQIE [CSN9] | condition not met |

Req: Is protein stability index for KPYSGKLLKVCLTMFED [ECM29] at or above 3?
Resp: condition not met

Req: Is reported protein stability index greater than or equal to 3 here: SHLFNEYSYVDSNMDSI [RPN4]
Resp: condition met

Req: Test whether the sequence TKPFENVEKYPTFVEFI [SNU114] records protein stability index of 3 or higher.
Resp: condition not met

* * *

# assay info: protein stability index of a GFP-peptide fusion (yeast GPS) (PSI 1-4); higher = more stable; sorted into four equal gates, so the index is relative within each strain
# cond: san1∆
Rule: protein stability index of 3 or more gives 1; anything lower gives 0.

| sequence entry | class |
| --- | --- |
| KTSCVVEKRIGKIVSQR [RGR1] | 1 |
| DIFGDSELFDEWFEQNN [ISW2] | 0 |
| KFLQVMQKHGYIGEFEY [RPS22A] | 0 |

Then there is this sequence:
Req: Decide: protein stability index of GKAATAKETHTKPSETP [YOR098C/NUP1] >= 3?
Resp: 0

* * *

Quick list: protein stability index per entry.
# assay info: protein stability index of a GFP-peptide fusion (yeast GPS) (PSI 1-4); higher = more stable; sorted into four equal gates, so the index is relative within each strain
# cond: ubr1∆
Note: the reply should be a number with no unit written.

| sequence entry | protein stability index |
| --- | --- |
| ENVGTRLLPINVNKKAL [MED11] | 2.98 |
| DKITLHDEKTLAPSKHQ [SIR4] | 2.92 |

Continue with the sequence presented below.
According to the records, this sequence ATVDEFPLCVHLVSNEL [RPL10] displays protein stability index of 2.99

* * *

# assay info: protein stability index of a GFP-peptide fusion (yeast GPS) (PSI 1-4); higher = more stable; sorted into four equal gates, so the index is relative within each strain
# cond: ubr1∆
readout type: protein stability index
I only need the number, thanks.

| sequence entry | reported measurement |
| --- | --- |
| RKKRTRRLKRKRRKVRA [RPL41A] | 3.17 |
| YDLLISTLTTISGNPPL [SRB5] | 2.46 |
| TIDEQSQISPEKQTPNK [RPN1] | 3.22 |
| YEGMKLGNHAITIDSVV [YMR129W/POM152] | 2 |
| DVSQLIAGINKKKGLDE [PRP28] | 3.76 |

Lookup result for ATYMDNDIAGQPQALQK [RPO21] ; measured protein stability index: 2.7

For ALGEFADWDPESMAYTA [YML031W/NDC1] the sequence record lists protein stability index as 3.26

get_value(item= GRFLRVPKEGLFYFDSS [BRR2] , readout=protein stability index) returns 3.1

* * *

# assay info: protein stability index of a GFP-peptide fusion (yeast GPS) (PSI 1-4); higher = more stable; sorted into four equal gates, so the index is relative within each strain
# cond: san1∆
Given measured protein stability index, output yes (1) if it is greater than or equal to 3 and no (0) if not.

Record excerpt, results attached:
| sequence entry | class |
| --- | --- |
| AVEQLAGCKIDNVDDIG [YDL088C/ASM4] | no (0) |
| PQIRQEIEQLDQYIQKQ [YGL172W/NUP49] | no (0) |
| LPILPIQRLRLLREKQR [YOR098C/NUP1] | no (0) |
| YHLHPTFANPNRTFTDP [TAF14] | no (0) |

Req: In plain terms: is recorded protein stability index at least 3 for PIMFQDFDDSTAQEINF [IRR1] ?
Resp: no (0)

Req: Check this sequence for protein stability index at or above 3: RKKRTRRLKRKRRKVRA [RPL41A]
Resp: yes (1)

Req: # bool: protein stability index of NAGTNDNSFNELTDNMS [MCD1] >= 3
Resp: yes (1)

Req: Reported protein stability index at or above 3? HFRAPSRILYKAIRGMV [RPL16B]
Resp: no (0)

Req: protein stability index >= 3 for LSQSSSYLETLTALGKE [MED2] ?
Resp: no (0)

Req: Exam item: decide whether the reported protein stability index for LWSIHPSRQFDHYESNQ [SRB8] is at least 3.
Resp: no (0)

Req: Decide: protein stability index of VVVKNWGAETDELSMIM [RPS12] >= 3?
Resp: yes (1)

Req: Is protein stability index at least 3? Consider MALKKNTHNKSTKRVTK [POP7]
Resp: no (0)

Req: Check this sequence for protein stability index at or above 3: DSNYKWDLSVEDALYLG [PRE2]
Resp: yes (1)

Req: Form field: protein stability index at least 3? Entry: SLFSKIKTFFTQKDSAR [YAR002W/NUP60]
Resp: no (0)

Req: Is protein stability index at least 3? Consider ILTKEVQGSTLAQLTSK [RPS1A]
Resp: yes (1)

Req: Please check the record KTRGPFHFRAPSRIFYK [RPL16A] and state if its protein stability index is at or above 3.
Resp: no (0)

Req: Textbook exercise: given the entry VNLPGGILRRKSESDEL [RRP4] , state whether its protein stability index is greater than or equal to 3.
Resp: no (0)

Req: Does protein stability index meet or surpass 3 for WREIIEKVRDYENSISK [IRR1] ?
Resp: no (0)

Req: Assess whether reported protein stability index for DLKIEKLVLNISVGESG [RPL11A] sits at 3 or higher.
Resp: no (0)

Req: Item YLAKLSKQLSLEEKKKR [IRR1] with protein stability index of 3 or above?
Resp: no (0)

Req: Exam item: decide whether the reported protein stability index for HVEKERASTELSQSRIK [YIL149C/MLP2] is at least 3.
Resp: yes (1)

Req: Item EQSLEVFIFPTSNWEIY [SRB8] with protein stability index of 3 or above?
Resp: no (0)

* * *

This listing pairs sequences with measured protein stability index.
# assay info: protein stability index of a GFP-peptide fusion (yeast GPS) (PSI 1-4); higher = more stable; sorted into four equal gates, so the index is relative within each strain
# cond: doa10∆
// return just the number, without any unit appended

Measured protein stability index of TGSNDRCIGDSDNVSFE [YMR129W/POM152] : 3.19

For reference, reported protein stability index for KKSKNGTISKTGKKNKV [SRP14] stands at 2.93

The sequence DATNTSYKMIQLDAYGE [SWP82] showed protein stability index equal to 3.29
